Target: UniProt:P00918
property.measured: pKi
Remember the convention: pKi equals -log10 of concentration in molar.

I'm curious: which pKi was measured for CCCCOc1ccc(C2C=C(Nc3ccc(S(N)(=O)=O)cc3)C(=O)N2c2ccc(S(N)(=O)=O)cc2)cc1 (stereo not drawn) tested on UniProt:P00918?
6.48

I'm curious: which pKi was measured for NS(=O)(=O)c1ccc(NC2=CC(c3ccco3)N(c3ccc(S(N)(=O)=O)cc3)C2=O)cc1 (stereo not drawn) tested on UniProt:P00918?
8.19

I'm curious: which pKi was measured for COc1ccccc1C1C=C(Nc2ccc(S(N)(=O)=O)cc2)C(=O)N1c1ccc(S(N)(=O)=O)cc1 (stereo not drawn) tested on UniProt:P00918?
8.22
